# System: F protein of wild type RSV A/Long (respiratory syncytial virus, strain …, UniProt P12568 26-574)
# Sequence (P12568 26-574): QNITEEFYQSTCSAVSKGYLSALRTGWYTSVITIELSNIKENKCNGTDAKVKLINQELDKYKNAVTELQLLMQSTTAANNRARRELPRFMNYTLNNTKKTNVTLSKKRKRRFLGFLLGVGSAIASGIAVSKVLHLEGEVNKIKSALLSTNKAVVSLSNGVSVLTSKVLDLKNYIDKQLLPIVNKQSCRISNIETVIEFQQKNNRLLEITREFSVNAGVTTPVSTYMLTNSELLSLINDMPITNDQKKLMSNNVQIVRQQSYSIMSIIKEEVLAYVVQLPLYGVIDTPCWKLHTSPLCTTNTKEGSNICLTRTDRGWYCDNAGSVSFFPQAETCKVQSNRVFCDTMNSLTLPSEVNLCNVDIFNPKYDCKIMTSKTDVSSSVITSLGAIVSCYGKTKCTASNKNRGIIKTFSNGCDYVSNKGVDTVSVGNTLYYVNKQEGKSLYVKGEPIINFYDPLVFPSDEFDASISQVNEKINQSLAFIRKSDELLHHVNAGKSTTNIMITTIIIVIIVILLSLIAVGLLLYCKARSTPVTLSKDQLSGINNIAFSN
# Assay Comment: cell-based or functional assay
Property Label: Mean IC50 (Curve), RSV microneutralization

P12f2 (Fab) (Fab, V domains shown, also called Pf12; P1212) VH: QVTLRESGPALVKPTQTLTLTCTFSGFSLSTPGMSVGWIRQPPGKALEWLADIWWDDKKHYNPSLKDRLTISKDTSKNQVVLKVTNMDPADTATYYCARDMIFNFYFDVWGAGTTVTVSS VL: DIQMTQSPSTLSASVGDRVTITCSLSSRVGYMHWYQQKPGKAPKLLIYDTFYLSSGVPSRFSGSGSGTEFTLTISSLQPDDFATYYCFQGSGYPFTFGGGTKVEIK	0.0407 µg/mL

In the following, a different binder is considered.
Data request, read-out Mean IC50 (Curve), RSV microneutralization, for A12a6 (Fab) (Fab, V domains shown) VH: QVTLRESGPALVKPTQTLTLTCTFSGFSLSTAGMSVGWIRQPPGKALEWLADIWWDGKKDYNPSLKDRLTISKDTSKNQVVLKVTNMDPADTATYYCARDMIFNFYFDVWGQGTTVTVSS VL: DIQMTQSPSTLSASVGDRVTITCSASSRVGYMHWYQQKPGKAPKLLIYDTFKLSSGVPSRFSGSGSGTEFTLTISSLQPDDFATYYCFQGSGYPFTFGGGTKVEIK
0.0287 µg/mL
